Known IC50 of a selection of molecules
Target: CDK7/CycH/Mat1 (Homo sapiens, UniProt P50613)
Construct: purchased Carna
Sequence (P50613 whole entry): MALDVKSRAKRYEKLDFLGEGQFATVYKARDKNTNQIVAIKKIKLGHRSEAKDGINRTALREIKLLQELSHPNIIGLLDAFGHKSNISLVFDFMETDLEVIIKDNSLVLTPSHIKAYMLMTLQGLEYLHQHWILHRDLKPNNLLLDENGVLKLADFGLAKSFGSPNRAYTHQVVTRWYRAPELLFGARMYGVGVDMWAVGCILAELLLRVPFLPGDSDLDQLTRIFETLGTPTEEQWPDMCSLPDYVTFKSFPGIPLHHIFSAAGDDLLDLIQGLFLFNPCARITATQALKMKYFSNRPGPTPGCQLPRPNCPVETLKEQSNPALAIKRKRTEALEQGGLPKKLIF
Sequence (P51946 whole entry partner): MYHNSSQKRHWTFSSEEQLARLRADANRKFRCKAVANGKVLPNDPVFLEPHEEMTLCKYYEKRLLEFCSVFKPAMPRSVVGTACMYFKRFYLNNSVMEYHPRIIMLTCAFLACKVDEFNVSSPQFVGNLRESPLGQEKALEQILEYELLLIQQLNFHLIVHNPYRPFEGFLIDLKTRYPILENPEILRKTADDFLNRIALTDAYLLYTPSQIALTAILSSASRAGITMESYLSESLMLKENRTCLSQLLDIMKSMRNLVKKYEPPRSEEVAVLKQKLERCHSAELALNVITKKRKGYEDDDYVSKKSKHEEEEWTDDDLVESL
Sequence (P51948 whole entry partner): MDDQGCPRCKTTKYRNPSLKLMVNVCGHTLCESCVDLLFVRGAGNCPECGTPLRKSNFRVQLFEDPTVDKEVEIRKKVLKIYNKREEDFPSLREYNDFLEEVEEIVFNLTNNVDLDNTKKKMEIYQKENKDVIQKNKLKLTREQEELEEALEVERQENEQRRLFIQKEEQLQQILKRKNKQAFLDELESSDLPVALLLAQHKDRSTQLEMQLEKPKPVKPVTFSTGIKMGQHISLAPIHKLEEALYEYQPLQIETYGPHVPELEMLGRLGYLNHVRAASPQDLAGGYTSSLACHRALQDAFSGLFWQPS
Experiment: CDK7 Enzymatic Activity Assay (Lance Kinase Activity Assay, FRET)
Format: biochemical
Details: Table 5A; 25 μM ATP final; read-out: CDK7: IC50 [mM] for CDK7 inhibition (the above defined ranges apply)

- MOLECULE: "COc1ccccc1[C@H](C)Nc1nc(O[C@@H]2CCCNC2)nc2c(C(C)C)cnn12"
  IC50: "< 10 nM"
- MOLECULE: "CC(C)c1cnn2c(NC(C)c3cccc4cn[nH]c34)nc(O[C@@H]3CCCNC3)nc12 (some centres unmarked)"
  IC50: "< 10 nM"
- MOLECULE: "CC(C)COc1cccc([C@H](C)Nc2nc(O[C@@H]3CCCNC3)nc3c(C(C)C)cnn23)c1"
  IC50: "30 to 100 nM"
- MOLECULE: "COc1cccc([C@H](C)Nc2nc(N(C)CCCN3CCCCC3)nc3c(C(C)C)cnn23)c1"
  IC50: "> 100 nM"
- MOLECULE: "COc1cc(F)ccc1[C@H](C)Nc1nc(O[C@@H]2CCCNC2)nc2c(C(C)C)cnn12"
  IC50: "30 to 100 nM"
- MOLECULE: "COc1cccc([C@H](C)Nc2nc(N3CCC(N)CC3)nc3c(C(C)C)cnn23)c1"
  IC50: "< 10 nM"
- MOLECULE: "COc1cccc([C@H](C)Nc2nc(O[C@@H]3CCNC3)nc3c(C(C)C)cnn23)c1"
  IC50: "< 10 nM"
- MOLECULE: "COc1cccc([C@H](C)Nc2nc(CN(C)CCCN3CCCCC3)nc3c(C(C)C)cnn23)c1"
  IC50: "> 100 nM"
- MOLECULE: "COc1cccc([C@H](C)Nc2nc(OC3CNC3)nc3c(C(C)C)cnn23)c1"
  IC50: "< 10 nM"
- MOLECULE: "COc1cccc([C@H](C)Nc2nc(N3CC4(CCNC4)C3)nc3c(C(C)C)cnn23)c1"
  IC50: "< 10 nM"
- MOLECULE: "COc1cccc([C@H](C)Nc2nc(N3CCC34CCCNC4)nc3c(C(C)C)cnn23)c1 (some centres unmarked)"
  IC50: "10 to 30 nM"
- MOLECULE: "COc1ccccc1[C@H](C)Nc1nc(N2CCC(N)CC2)nc2c(C(C)C)cnn12"
  IC50: "< 10 nM"
- MOLECULE: "COc1cccc([C@H](C)Nc2nc(N3CC4CCNC4C3)nc3c(C(C)C)cnn23)c1 (some centres unmarked)"
  IC50: "> 100 nM"
- MOLECULE: "CC(C)c1cnn2c(N[C@@H](C)c3ccccc3)nc(OC3CCN(C)C3)nc12 (some centres unmarked)"
  IC50: "10 to 30 nM"
- MOLECULE: "COc1cccc([C@H](C)Nc2nc(C(=O)N3CCNCC3)nc3c(C(C)C)cnn23)c1"
  IC50: "> 100 nM"
- MOLECULE: "CC(C)c1cnn2c(NC(C)c3cccc4ncccc34)nc(OC3CC4(CC(N)C4)C3)nc12 (centres unmarked)"
  IC50: "10 to 30 nM"
- MOLECULE: "CC(C)c1cnn2c(N[C@@H](C)c3ccccc3)nc(NC3CCNCC3)nc12"
  IC50: "10 to 30 nM"

Reference source: patent US9096608B2
